Molecular target: 17β-hydroxysteroid dehydrogenase type 3 (17β-HSD type 3) (Homo sapiens)
Construct: expressed in transfected cells; host or cells: MCF-7
Sequence (P37058 1-310): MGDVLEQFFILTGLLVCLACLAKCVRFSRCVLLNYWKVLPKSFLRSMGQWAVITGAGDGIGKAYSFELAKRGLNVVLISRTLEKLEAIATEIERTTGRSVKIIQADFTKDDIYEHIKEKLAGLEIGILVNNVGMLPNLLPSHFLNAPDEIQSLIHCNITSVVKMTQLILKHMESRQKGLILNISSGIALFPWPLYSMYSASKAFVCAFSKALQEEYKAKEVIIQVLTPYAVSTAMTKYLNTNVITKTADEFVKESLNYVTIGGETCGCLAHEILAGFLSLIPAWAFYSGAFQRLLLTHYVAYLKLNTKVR
Experiment: Inhibition of 17β-HSD type 3 in MCF-7 cells stably expressing the isoenzyme (tritium labeled androstenedione conversion, HPLC)
Format: cell-based
Conditions: MCF7; 10 μM test compound; MCF-7 cells expressing 17β-HSD type 3; 2 nM tritium labeled androstenedione; read-out: % Inhibition HSD3 10 μM
Tick MET if inhibition at 10 µM is 30% or greater. Tick NOT MET if inhibition at 10 µM is less than 30%.

>>> class_name("CCCCn1c(-c2cc(OC)c(OC)c(OC)c2)nc2sc3c(c2c1=O)CCCC3=O")
"MET"
>>> class_name("COc1cc(-c2nc3sc4c(O)cccc4c3c(=O)n2Cc2ccccc2)cc(OC)c1OC")
"MET"
>>> class_name("COc1cc(-c2nc3sc4c(c3c(=O)n2Cc2ccccc2)CC(C)C(Br)C4=O)c(Br)c(OC)c1OC (stereo not drawn)")
"NOT MET"

query: Hi, just wondering whether O=c1c2c3c(sc2nc(-c2cc(O)c(O)c(O)c2)n1Cc1ccccc1)CCCC3 shows inhibition at 10 µM of 30% or higher.
result: MET

query: Same thing, different compound: O=c1c2c3c(sc2nc(-c2cccs2)n1Cc1ccccc1)CCCC3
result: NOT MET

query: Same thing, different compound: CCCc1nc2sc3c(O)cccc3c2c(=O)n1Cc1cc(Br)ccc1OC
result: MET

query: Same thing, different compound: COc1cc(-c2nc3sc4c(O)cccc4c3c(=O)n2Cc2ccccc2)c(Cl)c(OC)c1OC
result: MET

query: Same thing, different compound: O=c1c2c3c(sc2nc(CO)n1-c1ccccc1)CCCC3
result: NOT MET

query: Same thing, different compound: CCCCn1c(-c2cc(OC)c(OC)c(OC)c2)nc2sc3c(c2c1=O)CC(C)CC3=O (stereo not drawn)
result: MET

query: Same thing, different compound: O=C1CCCc2c1sc1nc(-c3cccs3)n(Cc3ccccc3)c(=O)c21
result: NOT MET

query: Same thing, different compound: O=C1c2sc3nc(-c4ccc(Br)s4)n(Cc4ccccc4)c(=O)c3c2CCC1(Br)Br
result: NOT MET

query: Same thing, different compound: COc1ccc(-c2nc3sc4c(c3c(=O)n2Cc2ccccc2)CCC(Br)(Br)C4=O)cc1
result: NOT MET

query: Same thing, different compound: COc1ccc(-c2nc3sc4c(c3c(=O)n2-c2ccccc2)CCCC4=O)cc1
result: NOT MET

query: Same thing, different compound: COC(=O)c1nc2sc3c(c2c(=O)n1Cc1ccccc1)CCCC3=O
result: MET

query: Same thing, different compound: COc1cc(-c2nc3sc4c(c3c(=O)n2Cc2ccccc2)CCC(C=O)=C4Sc2ccccc2)cc(OC)c1OC
result: NOT MET

query: Same thing, different compound: COCCn1c(-c2cccs2)nc2sc3c(O)c(Br)ccc3c2c1=O
result: MET

query: Same thing, different compound: COc1cccc(-c2nc3sc4c(O)cccc4c3c(=O)n2Cc2ccccc2)c1
result: NOT MET

query: Same thing, different compound: COc1cc(-c2nc3sc4c(c3c(=O)n2CC(C)C)CCC(Br)C4=O)c(Br)c(OC)c1OC (stereo not drawn)
result: NOT MET
